Please provide measured inhibition at 3.3 µM for the entries that follow.
biological target: NPM-ALK-BaF3 (Homo sapiens, UniProt Q9UM73); construct: NPM (nuclear phosphoprotein / nucleophosmin, NPM1, P06748) fusion partner; expressed in transfected cells; host or cells: BaF3; the other entry of the earlier key: NPM1 (P06748, Nucleophosmin); assay: Growth inhibition of BaF3 cells stably transfected with kinase NPM-ALK (MTS); assay type: cell-based; conditions: compound concentration 3.3 μM, read-out: cell growth inhibition rate, NPM-ALK
Sequence (Q9UM73 with tags, fused parts or gaps): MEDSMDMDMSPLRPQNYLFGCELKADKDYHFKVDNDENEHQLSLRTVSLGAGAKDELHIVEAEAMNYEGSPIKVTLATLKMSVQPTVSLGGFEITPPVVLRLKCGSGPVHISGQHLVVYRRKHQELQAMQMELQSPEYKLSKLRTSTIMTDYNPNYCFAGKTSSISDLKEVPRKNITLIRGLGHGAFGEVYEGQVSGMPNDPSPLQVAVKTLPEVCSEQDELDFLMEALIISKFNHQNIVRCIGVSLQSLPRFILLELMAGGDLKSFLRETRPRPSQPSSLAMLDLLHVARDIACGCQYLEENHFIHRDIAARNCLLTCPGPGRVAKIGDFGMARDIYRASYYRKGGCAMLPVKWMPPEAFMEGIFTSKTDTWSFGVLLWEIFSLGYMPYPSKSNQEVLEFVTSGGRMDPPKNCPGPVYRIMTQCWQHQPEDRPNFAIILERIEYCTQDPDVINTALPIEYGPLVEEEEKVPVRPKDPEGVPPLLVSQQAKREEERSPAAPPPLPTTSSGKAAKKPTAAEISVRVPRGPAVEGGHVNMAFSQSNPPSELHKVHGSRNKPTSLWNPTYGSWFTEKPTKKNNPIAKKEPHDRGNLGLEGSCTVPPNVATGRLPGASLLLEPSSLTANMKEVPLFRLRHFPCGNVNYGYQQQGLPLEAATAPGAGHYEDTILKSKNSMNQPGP
Answers are plain numbers, in %.

Fill in inhibition at 3.3 µM for each of the 3 compounds listed.
1. CCOc1cc(N2CCN(C)CC2)ccc1Nc1nc(Nc2ccccc2C(=O)NC)c2sccc2n1
2. COc1cc(N2CCC(N3CCN(C)CC3)CC2)ccc1Nc1nc(NCc2ccccc2S(C)(=O)=O)c2sccc2n1
3. COc1cc(N2CCN(C)CC2)ccc1Nc1nc(Nc2ccccc2S(C)(=O)=O)c2sccc2n1

46.6
54.8
86

Data origin: patent US11078213B2
